Tested on: UACC-257
Assay: NCI tumour cell line growth inhibition, 48 h
Active and inactive are the calls of the source. Rule as the data show it: active = GI50 up to about 1.1 µM and inactive = higher. Where a SMILES comes first, the peptide text is derived from it. The star is where a group is joined. CH2Cl = ClC*
Attribute: GI50
RECORDED METRIC: GI50

CNC(=O)Nc1ccccc1	> 100 µM (inactive)
COc1ccc(/N=C(C)/C(C)=N/c2ccc(OC)cc2)cc1	56.9 µM (inactive)
c1ccc2c(C3NCCc4nc[nH]c43)cccc2c1 (stereo not drawn)	> 100 µM (inactive)
CCCCN(CCCC)C(=O)C(=O)CC(=O)c1ccc(Br)cc1	> 100 µM (inactive)
CC(=O)Nc1ccc(C(=O)NN2C(=O)C(Cl)/C2=C/c2ccco2)cc1 (stereo not drawn)	> 100 µM (inactive)
O=C1NC2C(O)CCCCC2C12CCCCC2 (stereo not drawn)	> 100 µM (inactive)
CC(=O)OCC1OC(n2ccc(=O)[nH]c2=O)C(OC(C)=O)C(OC(C)=O)C1OC(C)=O (stereo not drawn)	> 100 µM (inactive)
Cc1c2c(c(O)c3c(O)cccc13)C(=O)C1(O)C(=O)C(C(=O)NCNc3ccc(C(N)=O)cn3)=C(O)C(N(C)C)C1C2 (stereo not drawn)	3.66 µM (inactive)
CC(=O)NC(CC(C)C)C(=O)NC(Cc1ccccc1)C(=O)CCl (stereo not drawn) (Ac-Leu-Phe-CH2Cl; configuration not given here)	7.73 µM (inactive)
COC1(OC)CCC2C1C1CCC(OC)(OC)C21 (stereo not drawn)	> 50 µM (inactive)
CC(C)=CCC/C(C)=C/CO [GERANIOL]	> 100 µM (inactive)
CCn1c(-c2ccccc2)nc2c1C(=O)c1ccccc1C2=O	3.85 µM (inactive)
Nc1ncnc2c1ncn2[C@H]1C=C[C@@H](NO)C1	> 100 µM (inactive)
CCOP(=O)(OCC)/C(C#N)=C/c1ncc[nH]1	> 100 µM (inactive)
[O-][S+]1SC(=S)C2C=CC=CC21 (stereo not drawn)	75.5 µM (inactive)
COC(=O)CN1SC2(SC13C(C)(C)C(=O)C3(C)C)C(C)(C)C(=O)C2(C)C	48.2 µM (inactive)
CCOC(=O)C(=O)Nc1ccccc1OCC	> 100 µM (inactive)
Nc1nc2c(C(=O)NCc3cccs3)nnn2c2cccc(Cl)c12	> 100 µM (inactive)

====

Tested on: SNB-19
Test: NCI tumour cell line growth inhibition, 48 h
The source made the active and inactive calls. Rule as the data show it: active = GI50 up to about 1.1 µM and inactive = higher.
RECORDED METRIC: GI50

O=C(CCCl)NN=C1NCCN1	> 100 µM (inactive)
CC12CCC(=O)N1c1cc([N+](=O)[O-])ccc1N2 (stereo not drawn)	> 100 µM (inactive)
N=C1c2ccccc2C(=O)c2c(NCCNCCO)ccc(O)c21	8.24 µM (inactive)
ClCc1ccc2ccc3ccc(CCl)nc3c2n1	11.9 µM (inactive)
O=C1C=C2C(=NC34CCCCC3C(c3ccccc3)C3=C(c5ccccc5CC3)N24)c2ccccc21 (stereo not drawn)	> 10 µM (inactive)
NC(=O)C(N)=O	> 100 µM (inactive)
O=C(Nc1ccccc1[N+](=O)[O-])c1ccccc1	> 100 µM (inactive)
C/C(=N/NC(=O)C[n+]1ccccc1)C(CN(CC(C)C)CC(C)C)C(=O)Nc1ccc(C)cc1C (stereo not drawn)	26.7 µM (inactive)

====

System: OVCAR-8
Test: NCI tumour cell line growth inhibition, 48 h
Calls of active or inactive are those of the source. No stated cut-off is given here; in the data, active = GI50 up to about 1.1 µM and inactive = higher.
RECORDED METRIC: GI50

COc1ccc(/C=C(/C#N)C(N)=O)cc1OC	> 100 µM (inactive)
CC(=O)C1=C(C)O[C@@H]2O[C@H](COCc3ccccc3)[C@@H](OCc3ccccc3)[C@H](O)[C@@H]2S1	23 µM (inactive)
Cc1c(C=C(C#N)C#N)c(=O)n(C)c(=O)n1C	> 100 µM (inactive)
COc1cc(/C=C/c2ccc(Br)cc2)cc(OC)c1OC	28.3 µM (inactive)
CCCCN(CCCC)C(=O)C(=O)CC(=O)c1ccc(Br)cc1	> 100 µM (inactive)
Brc1cccc(/N=N/N2CCCC2)c1	> 100 µM (inactive)
Cn1c2ccccc2c2ccc3c(c21)C(=O)c1ccccc1C3=O	17.3 µM (inactive)
C[C@]12CCC[C@H](O)[C@H]1C[C@H](CO)CC2	> 100 µM (inactive)
COc1ccc(C)cc1-c1ccc(-c2cc(C)ccc2OC)o1	> 100 µM (inactive)
CC(=O)Oc1cc(S(=O)(=O)Nc2n[nH]c(Nc3ccc(C)cc3)n2)c(S)cc1Cl	> 100 µM (inactive)
CN(CCO)Cc1ncccc1O	> 100 µM (inactive)
Cc1c(C)c(C)c(-n2c(=O)n(C)c(=O)n2-c2cc(C(C)(C)C)cc(C(C)(C)C)c2O)c(C)c1C	10.4 µM (inactive)
O=C1c2ccccc2NC(=O)C2C1C(c1ccccc1)CC2(O)c1ccccc1 (centres undefined)	> 100 µM (inactive)
O=C1CSC(c2cc3cc(Br)ccc3nc2Cl)N1c1ccc(Cl)cc1 (centres undefined)	44.1 µM (inactive)

# credit: ChEMBL document CHEMBL1201862
